# System: RXF 393 renal
# ASSAY_PROTOCOL: NCI tumour cell line growth inhibition, 48 h
RESULT_TYPE: TGI

>>> measurement("COc1cc(-c2n/c(=C\\c3c(O)[nH]c4ccccc34)cc3c2=Nc2ccccc2-3)ccc1F")
"22.2 µM"
>>> measurement("CC[C@H](C)[C@H](NC(=O)c1ncccn1)C(=O)N(C)[C@H](C[C@@H](OC(C)=O)c1nc(C(=O)N[C@@H](Cc2ccccc2)C[C@H](C)C(=O)OC)cs1)C(C)C")
"20.6 µM"
>>> measurement("CN1C(c2ccccc2)CC(=NO)CC1c1ccccc1 (stereo not given)")
"> 100 µM"
>>> measurement("N=C1c2ccccc2C(=O)c2c(NCCNCCO)ccc(O)c21")
"18 µM"
>>> measurement("CSc1c(C(N)=S)c(N)nn1-c1ccccc1")
"> 100 µM"
